Biological target: human vasopressin V2 receptor subtype (Homo sapiens, UniProt P30518)
Sequence (P30518 whole entry): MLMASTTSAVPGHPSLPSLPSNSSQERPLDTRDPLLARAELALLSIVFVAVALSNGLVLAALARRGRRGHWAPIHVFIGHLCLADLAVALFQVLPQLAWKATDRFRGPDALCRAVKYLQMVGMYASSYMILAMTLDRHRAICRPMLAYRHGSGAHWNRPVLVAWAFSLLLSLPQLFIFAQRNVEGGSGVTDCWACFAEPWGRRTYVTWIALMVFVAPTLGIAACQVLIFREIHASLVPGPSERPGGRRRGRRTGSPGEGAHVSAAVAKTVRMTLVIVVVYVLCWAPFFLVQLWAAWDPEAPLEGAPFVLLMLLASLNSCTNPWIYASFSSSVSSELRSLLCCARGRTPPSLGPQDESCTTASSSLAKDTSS
pIC50: −log10 of the molar value.
Reported endpoint: pIC50

Solved entries (count: 2):
{"Molecule": "COc1cc(C(=O)N2Cc3ccc(C(=O)N(C)CC(O)CO)n3Cc3ccccc32)ccc1-c1ccccc1C(F)(F)F (stereo not drawn)", "Reported endpoint": "pIC50", "Number": 6.51}
{"Molecule": "COC[C@H](O)CN1CCN(C(=O)c2ccc3n2Cc2ccccc2N(C(=O)c2ccc(-c4ccccc4C(F)(F)F)c(C)c2)C3)CC1", "Reported endpoint": "pIC50", "Number": 6.11}

[a] COc1cc(C(=O)N2Cc3ccc(C(=O)N(C)C[C@@H](O)[C@H](O)[C@H](O)[C@@H](O)CO)n3Cc3ccccc32)ccc1-c1ccccc1C(F)(F)F (stereo in doubt)
[b] COc1cc(C(=O)N2Cc3ccc(C(=O)N(C)CC(O)CN(C)C)n3Cc3ccccc32)ccc1-c1ccccc1C(F)(F)F (stereo not drawn)
[c] Cc1ccc(-c2ccc(C(=O)N3Cc4ccc(C(=O)N(C)CC(O)CO)n4Cc4ccccc43)cc2)c2ccccc12 (stereo not drawn)
Rank descending by pIC50. The reply should contain the labels ordered as requested.
c, a, b

[P] Cc1cc(C(=O)N2Cc3ccc(C(=O)N(C)C[C@H](O)[C@@H](O)[C@H](O)[C@H](O)CO)n3Cc3ccccc32)ccc1-c1ccccc1C(F)(F)F
[Q] Cc1cc(C(=O)N2Cc3ccc(C(=O)N4CCN(C[C@@H](O)CO)CC4)n3Cc3ccccc32)ccc1-c1ccccc1C(F)(F)F
Hi there, can you help? I need to know whether P or Q has lower measured pIC50. Please reply using the label of the selected record.
Q

[A] Cc1cc(C(=O)N2Cc3ccc(C(=O)N4CCN(C[C@H](O)CO)CC4)n3Cc3ccccc32)ccc1-c1ccccc1C(F)(F)F
[B] COc1cc(-c2ccccc2C)c(Cl)cc1C(=O)N1Cc2ccc(C(=O)N3CCN(CCO)CC3)n2Cc2ccccc21
Hi there, can you help? I need to know whether A or B has lower measured pIC50. Please reply using the label of the selected record.
A
(A: 5.92, B: 6.42)

----------
Biological target: human vasopressin V2 receptor subtype (Homo sapiens)
Construct: host or cells: CHO cells, pZeoSV vector
Experiment: Vasopressin binding in CHO cell membranes expressing human vasopressin V2 subtype receptors ([3H]arginine vasopressin radioligand binding)
Conditions: @ 100 nM
Reported endpoint: inhibition at 0.1 µM (%)

{"Compound": "COc1ccccc1-c1ccc(C(=O)N2Cc3ccc(C(=O)N4CCN(CCO)CC4)n3Cc3ccccc32)cc1OC", "Subject of test": "human vasopressin V2 receptor subtype (Homo sapiens)", "inhibition at 0.1 µM (%)": 27}
{"Compound": "COc1cc2c(cc1OC)N(C(=O)c1ccc(-c3ccccc3C(F)(F)F)c(C)c1)Cc1ccc(C(=O)N(CCO)CCO)n1C2", "Subject of test": "human vasopressin V2 receptor subtype (Homo sapiens)", "inhibition at 0.1 µM (%)": 3}
{"Compound": "COc1cc(C(=O)N2Cc3ccc(C(=O)N4CCN(CCO)CC4)n3Cc3ccccc32)ccc1-c1cccc2ccccc12", "Subject of test": "human vasopressin V2 receptor subtype (Homo sapiens)", "inhibition at 0.1 µM (%)": 35}
{"Compound": "COCCN1CCN(C(=O)c2ccc3n2Cc2ccccc2N(C(=O)c2ccc(-c4ccccc4C(F)(F)F)c(C)c2)C3)CC1", "Subject of test": "human vasopressin V2 receptor subtype (Homo sapiens)", "inhibition at 0.1 µM (%)": 16}

[A] Cc1cc(C(=O)N2Cc3ccc(C(=O)N4CCN(CCO)CC4)n3Cc3ccccc32)ccc1-c1ccccc1C(F)(F)F
[B] COc1cc(C(=O)N2Cc3ccc(C(=O)N4CCN(CCO)CC4)n3Cc3ccccc32)ccc1-c1ccccc1C
Hi there, can you help? I need to know whether A or B has lower measured inhibition at 0.1 µM. Please reply using the label of the selected record.
A

----------
Target: human oxytocin receptor (Homo sapiens, UniProt P30559)
Construct: host or cells: CHO cells, pcDNA3.1 vector
Sequence (P30559 1-389): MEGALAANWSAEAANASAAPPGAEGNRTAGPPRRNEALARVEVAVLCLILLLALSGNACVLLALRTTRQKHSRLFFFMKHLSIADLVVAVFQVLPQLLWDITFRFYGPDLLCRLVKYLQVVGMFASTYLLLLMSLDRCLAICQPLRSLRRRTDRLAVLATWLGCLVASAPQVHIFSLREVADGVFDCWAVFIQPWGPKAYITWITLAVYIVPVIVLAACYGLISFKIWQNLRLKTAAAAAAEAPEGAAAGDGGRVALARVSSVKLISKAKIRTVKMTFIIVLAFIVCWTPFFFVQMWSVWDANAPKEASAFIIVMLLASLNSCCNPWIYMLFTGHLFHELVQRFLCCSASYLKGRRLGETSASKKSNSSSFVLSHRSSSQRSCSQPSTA
Assay: Oxytocin binding in CHO cell membranes expressing human oxytocin receptors ([3H]oxytocin radioligand binding)
Details: @ 100 nM, read-out: OT % inhibition @ 100 nM
Reported endpoint: inhibition at 0.1 µM (%)

Solved entries (count: 4):
{"Compound": "COc1ccccc1-c1ccc(C(=O)N2Cc3ccc(C(=O)N(C)C[C@@H](O)CO)n3Cc3ccccc32)cc1C (single isomer, unassigned)", "inhibition at 0.1 µM / %": 101}
{"Compound": "COc1ccccc1-c1ccc(C(=O)N2Cc3ccc(C(=O)N4CCN(CCO)CC4)n3Cc3ccccc32)cc1OC", "inhibition at 0.1 µM / %": 75}
{"Compound": "Cc1cc(C(=O)N2Cc3ccc(C(=O)N4CCN(CCO)CC4)n3Cc3ccccc32)ccc1-c1ccccc1C(F)(F)F", "inhibition at 0.1 µM / %": 79}
{"Compound": "COc1cccc(-c2ccc(C(=O)N3Cc4ccc(C(=O)N5CCN(CCO)CC5)n4Cc4ccccc43)cc2C)c1", "inhibition at 0.1 µM / %": 83}

[a] COc1cccc(-c2ccc(C(=O)N3Cc4ccc(C(=O)N5CCN(CCO)CC5)n4Cc4ccccc43)cc2OC)c1
[b] O=C(c1ccc2n1Cc1ccccc1N(C(=O)c1ccc(-c3cccc4ccccc34)cc1Cl)C2)N1CCN(CCO)CC1
[c] COc1cc2c(cc1OC)N(C(=O)c1ccc(-c3ccccc3C(F)(F)F)c(C)c1)Cc1ccc(C(=O)N(C)CC(O)CO)n1C2 (stereo not shown)
Rank descending by inhibition at 0.1 µM. The reply should contain the labels ordered as requested.
a, c, b

----------
Biological target: human oxytocin receptor (Homo sapiens)
Construct: host or cells: CHO cells, pcDNA3.1 vector
Sequence (P30559 1-389): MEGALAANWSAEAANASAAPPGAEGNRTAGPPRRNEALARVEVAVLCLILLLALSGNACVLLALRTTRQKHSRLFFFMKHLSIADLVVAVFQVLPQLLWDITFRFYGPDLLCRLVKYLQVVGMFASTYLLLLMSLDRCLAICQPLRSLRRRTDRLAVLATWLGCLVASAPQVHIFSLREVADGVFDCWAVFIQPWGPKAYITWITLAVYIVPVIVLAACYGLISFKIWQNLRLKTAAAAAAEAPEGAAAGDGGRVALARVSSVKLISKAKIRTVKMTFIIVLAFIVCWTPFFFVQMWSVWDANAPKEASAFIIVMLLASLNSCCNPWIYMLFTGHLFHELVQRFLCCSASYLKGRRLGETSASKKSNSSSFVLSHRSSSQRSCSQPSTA
Assay: Oxytocin binding in CHO cell membranes expressing human oxytocin receptors ([3H]oxytocin radioligand binding)
Settings: @ 100 nM, read-out: OT % inhibition @ 100 nM
Reported endpoint: inhibition at 0.1 µM (%)

Solved entries (count: 2):
{"Compound": "COc1ccccc1-c1ccc(C(=O)N2Cc3ccc(C(=O)N(C)C[C@H](O)CO)n3Cc3ccccc32)cc1C (single isomer, unassigned)", "Reported endpoint": "inhibition at 0.1 µM", "Unit descriptor": "%", "Number": 101}
{"Compound": "COc1cc2c(cc1OC)N(C(=O)c1ccc(-c3ccccc3C(F)(F)F)c(C)c1)Cc1ccc(C(=O)N(CCO)CCO)n1C2", "Reported endpoint": "inhibition at 0.1 µM", "Unit descriptor": "%", "Number": 27}

[P] COc1cc(C(=O)N2Cc3ccc(C(=O)N4CCN(CCO)CC4)n3Cc3ccccc32)ccc1-n1c(C)ccc1C
[Q] COc1ccccc1-c1ccc(C(=O)N2Cc3ccc(C(=O)N4CCN(CCO)CC4)n3Cc3ccccc32)cc1C
Hi there, can you help? I need to know whether P or Q has lower measured inhibition at 0.1 µM. Please reply using the label of the selected record.
P
(P: 36%, Q: 93%)

----------
Target: human oxytocin receptor (Homo sapiens)
Construct: host or cells: CHO cells, pcDNA3.1 vector
Sequence (P30559 1-389): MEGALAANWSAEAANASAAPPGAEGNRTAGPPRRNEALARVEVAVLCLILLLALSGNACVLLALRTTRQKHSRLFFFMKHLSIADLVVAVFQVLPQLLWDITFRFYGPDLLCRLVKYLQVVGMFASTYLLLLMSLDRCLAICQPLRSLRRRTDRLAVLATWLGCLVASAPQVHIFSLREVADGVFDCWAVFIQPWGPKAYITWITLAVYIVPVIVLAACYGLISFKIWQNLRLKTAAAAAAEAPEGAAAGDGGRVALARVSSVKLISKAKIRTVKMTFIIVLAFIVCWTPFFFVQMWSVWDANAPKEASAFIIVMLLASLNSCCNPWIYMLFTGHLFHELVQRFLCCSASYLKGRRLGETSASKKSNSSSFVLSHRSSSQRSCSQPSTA
Assay: Oxytocin binding in CHO cell membranes expressing human oxytocin receptors ([3H]oxytocin radioligand binding)
Conditions: @ 100 nM, read-out: OT % inhibition @ 100 nM
Reported endpoint: inhibition at 0.1 µM (%)

{"Compound": "COc1cc(C(=O)N2Cc3ccc(C(=O)N4CCN(CCO)CC4)n3Cc3ccccc32)ccc1-c1cccc2ccccc12 [Example 41]", "Subject of test": "human oxytocin receptor (Homo sapiens)", "inhibition at 0.1 µM (%)": 71}
{"Compound": "COc1ccccc1-c1ccc(C(=O)N2Cc3ccc(C(=O)N4CCN(CCO)CC4)n3Cc3ccccc32)cc1 [Example 47]", "Subject of test": "human oxytocin receptor (Homo sapiens)", "inhibition at 0.1 µM (%)": 55}
{"Compound": "Cc1ccccc1-c1ccc(C(=O)N2Cc3ccc(C(=O)N4CCN(CCO)CC4)n3Cc3ccccc32)cc1 [Example 45]", "Subject of test": "human oxytocin receptor (Homo sapiens)", "inhibition at 0.1 µM (%)": 87}
{"Compound": "Cc1ccccc1-c1ccc(C(=O)N2Cc3ccc(C(=O)N4CCN(CCO)CC4)n3Cc3ccccc32)cc1C [Example 46]", "Subject of test": "human oxytocin receptor (Homo sapiens)", "inhibition at 0.1 µM (%)": 97}
{"Compound": "COc1cc(C(=O)N2Cc3ccc(C(=O)N4CCN(CCO)CC4)n3Cc3ccccc32)ccc1-c1ccccc1C [Example 42]", "Subject of test": "human oxytocin receptor (Homo sapiens)", "inhibition at 0.1 µM (%)": 89}

[A] COc1cccc(-c2cc(OC)c(C(=O)N3Cc4ccc(C(=O)N5CCN(CCO)CC5)n4Cc4ccccc43)cc2Cl)c1 [Example 49]
[B] COc1cc2c(cc1OC)N(C(=O)c1ccc(-c3ccccc3OC)c(C)c1)Cc1ccc(C(=O)N(C)C[C@H](O)[C@@H](O)[C@H](O)[C@H](O)CO)n1C2 [Example 37]
Recorded inhibition at 0.1 µM values differ for A and B ; which one is higher? Please reply using the label of the selected record.
A
